# Test system: Micrococcus luteus
# measurement_protocol: Antibacterial activity against Micrococcus luteus MTCC 1538 assessed as growth inhibition at 750 ug/mL after 48 hr by agar diffusion method
# Assay type: functional
# condition: MTCC 1538, 48 h, read-out: DIZ
readout_name: zone of inhibition at 750 µg/mL

Req: Requested read-out: zone of inhibition at 750 µg/mL. Entry: O=C1CSC(c2cccc3ccccc23)N1c1nnc2c3ccccc3nc-2s1 (stereo unspecified)
Resp: 11 mm

Req: Requested read-out: zone of inhibition at 750 µg/mL. Entry: O=C1CSC(c2ccccn2)N1c1nnc2c3cc(Cl)ccc3nc-2s1 (stereo unspecified)
Resp: 12 mm

Req: Requested read-out: zone of inhibition at 750 µg/mL. Entry: CC1SCC(=O)N1c1nnc2c3cc(Cl)ccc3nc-2s1 (stereo unspecified)
Resp: 14 mm

Req: Requested read-out: zone of inhibition at 750 µg/mL. Entry: CC1SCC(=O)N1c1nnc2c3ccccc3nc-2s1 (stereo unspecified)
Resp: 14 mm

Req: Requested read-out: zone of inhibition at 750 µg/mL. Entry: O=C1CSC(c2ccccn2)N1c1nnc2c3ccccc3nc-2s1 (stereo unspecified)
Resp: 14 mm

Req: Requested read-out: zone of inhibition at 750 µg/mL. Entry: O=C1CSC(c2cccc3ccccc23)N1c1nnc2c3cc(Cl)ccc3nc-2s1 (stereo unspecified)
Resp: 12 mm

----------
# System: Escherichia coli
# measurement_protocol: Antibacterial activity against Escherichia coli MTCC 1573 assessed as growth inhibition at 1250 ug/mL after 48 hr by agar diffusion method
# Type: functional
# condition: MTCC 1573, 48 h, read-out: DIZ
Kindly state zone of inhibition at 1250 µg/mL for each of the entries shown.
Please reply with the bare figure in mm and do not write the unit itself.

Req: Please tell me: zone of inhibition at 1250 µg/mL of O=C1CSC(c2cccc3ccccc23)N1c1nnc2c3cc(Cl)ccc3nc-2s1 (stereo unspecified) , system Escherichia coli?
Resp: 20

Req: Please tell me: zone of inhibition at 1250 µg/mL of O=C1CSC(c2ccccn2)N1c1nnc2c3ccccc3nc-2s1 (stereo unspecified) , system Escherichia coli?
Resp: 22

Req: Please tell me: zone of inhibition at 1250 µg/mL of O=C1CSC(c2ccccn2)N1c1nnc2c3cc(Cl)ccc3nc-2s1 (stereo unspecified) , system Escherichia coli?
Resp: 23

Req: Please tell me: zone of inhibition at 1250 µg/mL of O=C1CSC(c2cccc3ccccc23)N1c1nnc2c3ccccc3nc-2s1 (stereo unspecified) , system Escherichia coli?
Resp: 18

Req: Please tell me: zone of inhibition at 1250 µg/mL of CC1SCC(=O)N1c1nnc2c3cc(Cl)ccc3nc-2s1 (stereo unspecified) , system Escherichia coli?
Resp: 21

Req: Please tell me: zone of inhibition at 1250 µg/mL of CC1SCC(=O)N1c1nnc2c3ccccc3nc-2s1 (stereo unspecified) , system Escherichia coli?
Resp: 20

----------
# System: Staphylococcus aureus
# measurement_protocol: Antibacterial activity against Staphylococcus aureus MTCC 1430 assessed as growth inhibition at 750 ug/mL after 48 hr by agar diffusion method
# Type: functional
# condition: MTCC 1430, 48 h, read-out: DIZ
readout_name: zone of inhibition at 750 µg/mL
Hey, just the number and the unit after it is fine.

Req: Please tell me: zone of inhibition at 750 µg/mL of O=C1CSC(c2ccccn2)N1c1nnc2c3cc(Cl)ccc3nc-2s1 (stereo unspecified) , system Staphylococcus aureus?
Resp: 11 mm

Req: Please tell me: zone of inhibition at 750 µg/mL of CC1SCC(=O)N1c1nnc2c3ccccc3nc-2s1 (stereo unspecified) , system Staphylococcus aureus?
Resp: 11 mm

Req: Please tell me: zone of inhibition at 750 µg/mL of O=C1CSC(c2cccc3ccccc23)N1c1nnc2c3ccccc3nc-2s1 (stereo unspecified) , system Staphylococcus aureus?
Resp: 12 mm

Req: Please tell me: zone of inhibition at 750 µg/mL of CC1SCC(=O)N1c1nnc2c3cc(Cl)ccc3nc-2s1 (stereo unspecified) , system Staphylococcus aureus?
Resp: 13 mm

Req: Please tell me: zone of inhibition at 750 µg/mL of O=C1CSC(c2ccccn2)N1c1nnc2c3ccccc3nc-2s1 (stereo unspecified) , system Staphylococcus aureus?
Resp: 10 mm

Req: Please tell me: zone of inhibition at 750 µg/mL of O=C1CSC(c2cccc3ccccc23)N1c1nnc2c3cc(Cl)ccc3nc-2s1 (stereo unspecified) , system Staphylococcus aureus?
Resp: 8 mm

----------
Kindly state zone of inhibition at 750 µg/mL for each of the entries shown.
# System: Escherichia coli
# measurement_protocol: Antibacterial activity against Escherichia coli MTCC 1573 assessed as growth inhibition at 750 ug/mL after 48 hr by agar diffusion method
# Type: functional
# condition: MTCC 1573, 48 h, read-out: DIZ
Please reply with the bare figure in mm and do not write the unit itself.

Req: Requested read-out: zone of inhibition at 750 µg/mL. Entry: CC1SCC(=O)N1c1nnc2c3cc(Cl)ccc3nc-2s1 (stereo unspecified)
Resp: 17

Req: Requested read-out: zone of inhibition at 750 µg/mL. Entry: O=C1CSC(c2cccc3ccccc23)N1c1nnc2c3cc(Cl)ccc3nc-2s1 (stereo unspecified)
Resp: 15

Req: Requested read-out: zone of inhibition at 750 µg/mL. Entry: CC1SCC(=O)N1c1nnc2c3ccccc3nc-2s1 (stereo unspecified)
Resp: 15

Req: Requested read-out: zone of inhibition at 750 µg/mL. Entry: O=C1CSC(c2cccc3ccccc23)N1c1nnc2c3ccccc3nc-2s1 (stereo unspecified)
Resp: 13

Req: Requested read-out: zone of inhibition at 750 µg/mL. Entry: O=C1CSC(c2ccccn2)N1c1nnc2c3ccccc3nc-2s1 (stereo unspecified)
Resp: 15

Req: Requested read-out: zone of inhibition at 750 µg/mL. Entry: O=C1CSC(c2ccccn2)N1c1nnc2c3cc(Cl)ccc3nc-2s1 (stereo unspecified)
Resp: 15

----------
# Tested on: Pseudomonas fluorescens
# measurement_protocol: Antibacterial activity against Pseudomonas fluorescens MTCC 2421 assessed as growth inhibition at 1000 ug/mL after 48 hr by agar diffusion method
# Format: functional
# condition: MTCC 2421, 48 h, read-out: DIZ
Kindly state zone of inhibition at 1000 µg/mL for each of the entries shown.
Please reply with the bare figure in mm and do not write the unit itself.

Req: Requested read-out: zone of inhibition at 1000 µg/mL. Entry: O=C1CSC(c2cccc3ccccc23)N1c1nnc2c3ccccc3nc-2s1 (stereo unspecified)
Resp: 19

Req: Requested read-out: zone of inhibition at 1000 µg/mL. Entry: O=C1CSC(c2cccc3ccccc23)N1c1nnc2c3cc(Cl)ccc3nc-2s1 (stereo unspecified)
Resp: 20

Req: Requested read-out: zone of inhibition at 1000 µg/mL. Entry: O=C1CSC(c2ccccn2)N1c1nnc2c3cc(Cl)ccc3nc-2s1 (stereo unspecified)
Resp: 17

Req: Requested read-out: zone of inhibition at 1000 µg/mL. Entry: CC1SCC(=O)N1c1nnc2c3ccccc3nc-2s1 (stereo unspecified)
Resp: 21

Req: Requested read-out: zone of inhibition at 1000 µg/mL. Entry: O=C1CSC(c2ccccn2)N1c1nnc2c3ccccc3nc-2s1 (stereo unspecified)
Resp: 18

Req: Requested read-out: zone of inhibition at 1000 µg/mL. Entry: CC1SCC(=O)N1c1nnc2c3cc(Cl)ccc3nc-2s1 (stereo unspecified)
Resp: 15

----------
# Test system: Penicillium chrysogenum
# measurement_protocol: Antifungal activity against Penicillium chrysogenum MTCC 161 assessed as growth inhibition at 1000 ug/mL after 48 hr by agar diffusion method
# Type: functional
# condition: MTCC 161, 48 h, read-out: DIZ
Kindly state zone of inhibition at 1000 µg/mL for each of the entries shown.
Please reply with the bare figure in mm and do not write the unit itself.

Req: Requested read-out: zone of inhibition at 1000 µg/mL. Entry: CC1SCC(=O)N1c1nnc2c3cc(Cl)ccc3nc-2s1 (stereo unspecified)
Resp: 18

Req: Requested read-out: zone of inhibition at 1000 µg/mL. Entry: CC1SCC(=O)N1c1nnc2c3ccccc3nc-2s1 (stereo unspecified)
Resp: 15

Req: Requested read-out: zone of inhibition at 1000 µg/mL. Entry: O=C1CSC(c2cccc3ccccc23)N1c1nnc2c3ccccc3nc-2s1 (stereo unspecified)
Resp: 12

Req: Requested read-out: zone of inhibition at 1000 µg/mL. Entry: O=C1CSC(c2cccc3ccccc23)N1c1nnc2c3cc(Cl)ccc3nc-2s1 (stereo unspecified)
Resp: 15

Req: Requested read-out: zone of inhibition at 1000 µg/mL. Entry: O=C1CSC(c2ccccn2)N1c1nnc2c3ccccc3nc-2s1 (stereo unspecified)
Resp: 15

Req: Requested read-out: zone of inhibition at 1000 µg/mL. Entry: O=C1CSC(c2ccccn2)N1c1nnc2c3cc(Cl)ccc3nc-2s1 (stereo unspecified)
Resp: 18

----------
# System: Bacillus subtilis
# measurement_protocol: Antibacterial activity against Bacillus subtilis MTCC 441 assessed as growth inhibition at 500 ug/mL after 48 hr by agar diffusion method
# Type: functional
# condition: MTCC 441, 48 h, read-out: DIZ
readout_name: zone of inhibition at 500 µg/mL (mm)
Please reply with the bare figure in mm and do not write the unit itself.

Req: Requested read-out: zone of inhibition at 500 µg/mL. Entry: O=C1CSC(c2ccccn2)N1c1nnc2c3cc(Cl)ccc3nc-2s1 (stereo unspecified)
Resp: 9

Req: Requested read-out: zone of inhibition at 500 µg/mL. Entry: CC1SCC(=O)N1c1nnc2c3cc(Cl)ccc3nc-2s1 (stereo unspecified)
Resp: 15

Req: Requested read-out: zone of inhibition at 500 µg/mL. Entry: CC1SCC(=O)N1c1nnc2c3ccccc3nc-2s1 (stereo unspecified)
Resp: 15

Req: Requested read-out: zone of inhibition at 500 µg/mL. Entry: O=C1CSC(c2ccccn2)N1c1nnc2c3ccccc3nc-2s1 (stereo unspecified)
Resp: 12

Req: Requested read-out: zone of inhibition at 500 µg/mL. Entry: O=C1CSC(c2cccc3ccccc23)N1c1nnc2c3cc(Cl)ccc3nc-2s1 (stereo unspecified)
Resp: 11

Req: Requested read-out: zone of inhibition at 500 µg/mL. Entry: O=C1CSC(c2cccc3ccccc23)N1c1nnc2c3ccccc3nc-2s1 (stereo unspecified)
Resp: 13
